The measurements presented in this section are drawn from ChEMBL document CHEMBL5308504.

# measurement_target: Fibroblast growth factor receptor 3 (Homo sapiens)
# condition_details: Compound concentration 20.0 uM, Protein concentration 2.0 uM, Result type QC Liability
# Description: Thermal Shift Assay. Domain: start/stop: P449-E759
quantity_measured: ΔTm (°C)
Give the number; °C is assumed, so skip it.

Example entries begin here.
chemical_structure	ΔTm [°C]
CCn1c(CNC(=O)c2nc(Cl)cnc2N)[n+](CC)c2ccc(C(=O)N(C)CCN(C)C)cc21	0.5
N#Cc1ccc(C#CC[C@@H](C#N)NC(=O)[C@H]2CCCCN2)cc1F	0.88
CCS(=O)(=O)c1ccc(OC)c(Nc2ncc(-c3cccc(F)c3)o2)c1	3.6
COc1cc2ncnc(Nc3ccc4c(cnn4Cc4ccccc4)c3)c2cc1OC	1.75

Consider the additional molecule presented here.
Problem: Using the record for O=C(NCCN1CCOCC1)c1ccc2nn(CCOc3ccc(Cl)cc3)cc2c1 , report its ΔTm.
Result: 1.58
